molecular target: CYP2C9 (Homo sapiens, UniProt P11712); assay: Inhibition of CYP2C9 at 10 uM; type: ADME
Sequence (P11712 whole entry): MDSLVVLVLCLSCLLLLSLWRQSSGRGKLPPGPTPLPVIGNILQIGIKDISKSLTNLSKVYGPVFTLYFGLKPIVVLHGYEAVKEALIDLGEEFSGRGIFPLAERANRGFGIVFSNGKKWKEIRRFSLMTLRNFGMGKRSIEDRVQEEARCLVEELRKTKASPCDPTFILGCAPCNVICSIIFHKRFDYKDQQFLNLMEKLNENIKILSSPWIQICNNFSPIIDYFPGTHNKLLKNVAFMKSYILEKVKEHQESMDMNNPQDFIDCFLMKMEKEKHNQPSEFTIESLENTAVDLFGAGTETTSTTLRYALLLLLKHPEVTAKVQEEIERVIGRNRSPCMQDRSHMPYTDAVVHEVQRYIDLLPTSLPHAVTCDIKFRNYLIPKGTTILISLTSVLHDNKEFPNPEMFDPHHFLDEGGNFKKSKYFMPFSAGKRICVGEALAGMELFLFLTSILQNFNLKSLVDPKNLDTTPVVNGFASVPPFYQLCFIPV
attribute-measured: inhibition at 10 µM

Give the observed inhibition at 10 µM of CCC(CC)C(=O)Nc1ccc(N2CCN(C(C(=O)N(CC)CC)c3ccccc3)CC2)c(C#N)c1 (racemic; 34) for CYP2C9 (Homo sapiens, UniProt P11712). > 75%

----------
target: UniProt P49146; experiment: Displacement of [125I]PYY from human NPY Y2 receptor expressed endogenously in KAN-Ts cells by scintillation counting
Provide the reported log10 IC50 of each item.
Response schema: value (number) is log10 of IC50 in units of nM.

Example compounds with recorded log10 IC50:
Please report the measured log10 IC50 for COC(=O)C(c1ccccc1)N1CCN(c2ccc(NC(=O)c3ccccc3-c3ccccc3)cc2)CC1 (stereo not given) 2.72

Give log10 IC50 for CCNC(=O)C(c1ccccc1)N1CCN(c2ccc(NC(=O)C(CC)CC)cc2C#N)CC1 (stereo not given) 2.18

Note log10 IC50 for the compound shown: COC(=O)C(c1ccccc1)N1CCN(c2ccc(NC(=O)c3ccccc3-c3ccncc3)cc2F)CC1 (stereo not given) 1.57

Batch: log10 IC50 for all items listed.
1. CCN(CC)C(=O)[C@H](c1ccccc1)N1CCN(c2ccc(NC(=O)c3ccccc3-c3cccnc3)cc2F)CC1
2. CCC(CC)C(=O)Nc1ccc(N2CCN(C(C(=O)N(CC)CC)c3ccccc3)CC2)c(C#N)c1 (racemic; 32)
3. CCC(CC)C(=O)Nc1ccc(N2CCN(C(C(=O)OC)c3ccccc3)CC2)c(F)c1 (stereo not given)
4. COC(=O)C(c1ccccc1)N1CCN(c2ccc(NC(=O)c3ccccc3-c3ccccc3)cc2C#N)CC1 (stereo not given)
5. COC(=O)C(c1ccccc1)N1CCN(c2ccc(NC(=O)c3ccccc3-c3cccnc3)cc2)CC1 (stereo not given)

1: 1.15; 2: 2.30; 3: 2.22; 4: 1.40; 5: 2.34

Provide log10 IC50 values for the following items, in order.
1. CCN(CC)C(=O)C(c1ccccc1)N1CCN(c2ccc(NC(=O)c3ccccc3-c3ccccc3)cc2F)CC1 (racemic)
2. COC(=O)C(c1ccccc1)N1CCN(c2ccc(NC(=O)c3ccccc3-c3ccncc3)cc2)CC1 (stereo not given)

1. 1.00
2. 2.38

----------
Target: Neuropeptide Y receptor type 2 (Homo sapiens)
Sequence (P49146 whole entry): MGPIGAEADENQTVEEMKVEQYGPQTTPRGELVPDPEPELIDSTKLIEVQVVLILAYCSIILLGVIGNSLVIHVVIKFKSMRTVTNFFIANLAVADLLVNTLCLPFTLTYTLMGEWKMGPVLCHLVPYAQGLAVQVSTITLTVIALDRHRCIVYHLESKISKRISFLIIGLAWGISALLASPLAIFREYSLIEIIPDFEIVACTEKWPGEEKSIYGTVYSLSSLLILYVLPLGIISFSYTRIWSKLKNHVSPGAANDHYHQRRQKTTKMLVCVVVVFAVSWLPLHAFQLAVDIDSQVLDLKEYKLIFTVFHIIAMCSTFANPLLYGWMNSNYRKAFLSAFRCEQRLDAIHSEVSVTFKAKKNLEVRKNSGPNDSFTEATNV
Assay: Displacement of [125I]PYY from human NPY Y2 receptor expressed endogenously in KAN-Ts cells by scintillation counting
attribute-measured: IC50 (nM)
One number for each entry, in nM.

Sample records with IC50:
Dear colleague, please send me the reported IC50 for CCN(CC)C(=O)C(c1ccccc1)N1CCN(c2ccc(NC(=O)c3ccccc3-c3ccccc3)cc2C#N)CC1 (racemic; 30) when you can. 8

Assign IC50 to the following record: CCN(CC)C(=O)[C@@H](c1ccccc1)N1CCN(c2ccc(NC(=O)c3ccccc3-c3cccnc3)cc2F)CC1 9

Find the measured IC50 of CCNC(=O)C(c1ccccc1)N1CCN(c2ccc(NC(=O)c3ccccc3-c3ccccc3)cc2F)CC1 (stereo not drawn) and report it. 35

Tell us which IC50 value is on record for CCNC(=O)C(c1ccccc1)N1CCN(c2ccc(NC(=O)c3ccccc3-c3cccnc3)cc2C#N)CC1 (stereo not drawn) 30

Take each entry in turn and give its IC50.
1. CCC(CC)C(=O)Nc1ccc(N2CCN(C(C(=O)N(CC)CC)c3ccccc3)CC2)c(F)c1 (racemic)
2. CCNC(=O)C(c1ccccc1)N1CCN(c2ccc(NC(=O)C(CC)CC)cc2F)CC1 (stereo not drawn)
3. CCNC(=O)C(c1ccccc1)N1CCN(c2ccc(NC(=O)c3ccccc3-c3ccccc3)cc2C#N)CC1 (stereo not drawn)
4. CCN(CC)C(=O)C(c1ccccc1)N1CCN(c2ccc(NC(=O)c3ccccc3-c3ccccc3)cc2C#N)CC1 (racemic; 28)

[50, 370, 11, 37]

----------
molecular target: CYP2D6 (Homo sapiens, UniProt P10635); assay: Inhibition of CYP2D6 at 10 uM; assay type: ADME
Sequence (P10635 whole entry): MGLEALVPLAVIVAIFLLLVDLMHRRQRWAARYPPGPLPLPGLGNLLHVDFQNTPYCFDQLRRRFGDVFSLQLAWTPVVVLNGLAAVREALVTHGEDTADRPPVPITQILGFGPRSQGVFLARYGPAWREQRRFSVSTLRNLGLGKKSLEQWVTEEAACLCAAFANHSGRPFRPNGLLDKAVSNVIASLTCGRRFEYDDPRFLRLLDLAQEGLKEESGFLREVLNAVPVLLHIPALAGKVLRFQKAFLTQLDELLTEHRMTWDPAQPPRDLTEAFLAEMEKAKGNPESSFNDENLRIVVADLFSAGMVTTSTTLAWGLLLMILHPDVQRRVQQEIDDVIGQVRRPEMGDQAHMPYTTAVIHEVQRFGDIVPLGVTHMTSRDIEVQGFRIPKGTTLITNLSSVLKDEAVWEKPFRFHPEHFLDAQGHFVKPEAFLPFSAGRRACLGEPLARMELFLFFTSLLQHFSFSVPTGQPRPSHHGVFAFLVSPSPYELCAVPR
attribute-measured: inhibition at 10 µM

Answer with the recorded inhibition at 10 µM of CCC(CC)C(=O)Nc1ccc(N2CCN(C(C(=O)N(CC)CC)c3ccccc3)CC2)c(C#N)c1 (racemic; 34) only. > 75%

----------
biological target: Neuropeptide Y receptor type 2 (Homo sapiens, UniProt P49146); experiment: Displacement of [125I]PYY from human NPY Y2 receptor expressed endogenously in KAN-Ts cells by scintillation counting
attribute-measured: pIC50
Give bare numbers, as −log10 of the molar value.

Look up and report measured pIC50 (Neuropeptide Y receptor type 2 (Homo sapiens, UniProt P49146)) for the following compound: COc1cccnc1C(=O)N1CCN(c2ccc(NC(C)(C)c3ccccc3)cc2Cl)CC1 7.60

Please state pIC50 for every compound in the list that follows.
1. COC(=O)C(c1ccccc1)N1CCN(c2ccc(NC(=O)c3ccccc3-c3cccnc3)cc2F)CC1 (stereo not drawn)
2. COC(=O)C(c1ccccc1)N1CCN(c2ccc(NC(=O)c3ccccc3-c3ccccc3)cc2F)CC1 (stereo not drawn)

1: 7.40; 2: 7.28

Kindly give each listed record's pIC50.
1. CCN(CC)C(=O)C(c1ccccc1)N1CCN(c2ccc(NC(=O)c3ccccc3-c3cccnc3)cc2F)CC1 (racemic)
2. CCC(CC)C(=O)Nc1ccc(N2CCN(C(C(=O)N(CC)CC)c3ccccc3)CC2)c(C#N)c1 (racemic; 34)
3. CCOc1ccc(NC(=S)N2CCC(C(O)(c3ccccc3)c3ccccc3)CC2)cc1

8.22
7.89
6.70

Please state, for each entry, its recorded pIC50.
1. COC(=O)C(c1ccccc1)N1CCN(c2ccc(NC(=O)c3ccccc3-c3ccccc3)cc2C)CC1 (stereo not drawn)
2. CCNC(=O)C(c1ccccc1)N1CCN(c2ccc(NC(=O)c3ccccc3-c3cccnc3)cc2F)CC1 (stereo not drawn)

1. 7.00
2. 7.38
